These data points were gathered from ChEMBL document CHEMBL4257476.

Reported IC50 values are given for each entry in this list.
target: Isocitrate dehydrogenase [NADP] cytoplasmic (Homo sapiens, UniProt O75874, R132H); assay: Inhibition of His-tagged recombinant human IDH1 R132H mutant expressed in Escherichia coli Rosetta (DE3) preincubated for 30 mins followed by NADPH/alpha-KG addition and measured after 1 hr
Sequence (O75874 2-414 R132H limits assumed): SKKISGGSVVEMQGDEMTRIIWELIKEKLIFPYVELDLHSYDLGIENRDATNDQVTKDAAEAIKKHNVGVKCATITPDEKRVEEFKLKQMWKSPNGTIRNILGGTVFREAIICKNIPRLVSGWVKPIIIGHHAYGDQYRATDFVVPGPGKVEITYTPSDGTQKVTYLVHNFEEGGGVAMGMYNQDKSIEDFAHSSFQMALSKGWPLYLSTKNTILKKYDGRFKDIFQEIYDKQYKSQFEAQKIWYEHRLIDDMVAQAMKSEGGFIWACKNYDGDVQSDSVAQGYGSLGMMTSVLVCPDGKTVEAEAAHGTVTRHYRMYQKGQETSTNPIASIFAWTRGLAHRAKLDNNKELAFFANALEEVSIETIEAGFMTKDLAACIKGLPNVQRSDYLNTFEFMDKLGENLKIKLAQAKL

# count of solved cases: 5
Record for Cc1cc(=O)c(O)c(C(c2ccc(OCc3ccccc3)cc2)c2oc(C)cc(=O)c2O)o1 under target or system Isocitrate dehydrogenase [NADP] cytoplasmic (Homo sapiens, UniProt O75874, R132H): IC50 reported as 23.1 µM

Record for Cc1ccccc1C(C(=O)NC1CCCCC1)N(C(=O)Cn1ccnc1C)c1cccc(F)c1 (configuration not stated) under target or system Isocitrate dehydrogenase [NADP] cytoplasmic (Homo sapiens, UniProt O75874, R132H): IC50 reported as 0.08 µM

Record for Cc1cc(=O)c(O)c(Cc2ccc(OCc3ccccc3)cc2)o1 under target or system Isocitrate dehydrogenase [NADP] cytoplasmic (Homo sapiens, UniProt O75874, R132H): IC50 reported as > 50 µM

Record for Cc1cc(=O)c(O)c(Cc2ccccc2)o1 under target or system Isocitrate dehydrogenase [NADP] cytoplasmic (Homo sapiens, UniProt O75874, R132H): IC50 reported as > 50 µM

Record for C=CCOc1ccc(C(c2oc(C)cc(=O)c2O)c2oc(C)cc(=O)c2O)cc1 under target or system Isocitrate dehydrogenase [NADP] cytoplasmic (Homo sapiens, UniProt O75874, R132H): IC50 reported as > 50 µM

New cases:
Record for Cc1cc(=O)c(O)c(Cc2ccc(F)cc2)o1 under target or system Isocitrate dehydrogenase [NADP] cytoplasmic (Homo sapiens, UniProt O75874, R132H): IC50 reported as > 50 µM

Record for Cc1cc(=O)c(O)c(C(c2ccc(OCc3ccc([N+](=O)[O-])cc3)cc2)c2oc(C)cc(=O)c2O)o1 under target or system Isocitrate dehydrogenase [NADP] cytoplasmic (Homo sapiens, UniProt O75874, R132H): IC50 reported as > 50 µM

Record for Cc1cc(=O)c(O)c(Cc2ccc(Cl)cc2)o1 under target or system Isocitrate dehydrogenase [NADP] cytoplasmic (Homo sapiens, UniProt O75874, R132H): IC50 reported as > 50 µM

Record for CCCOc1ccc(C(c2oc(C)cc(=O)c2O)c2oc(C)cc(=O)c2O)cc1 under target or system Isocitrate dehydrogenase [NADP] cytoplasmic (Homo sapiens, UniProt O75874, R132H): IC50 reported as > 50 µM

Record for Cc1cc(=O)c(O)c(Cc2ccc(C(F)(F)F)cc2)o1 under target or system Isocitrate dehydrogenase [NADP] cytoplasmic (Homo sapiens, UniProt O75874, R132H): IC50 reported as > 50 µM

Record for COc1ccc(COc2ccc(C(c3oc(C)cc(=O)c3O)c3oc(C)cc(=O)c3O)cc2)cc1 under target or system Isocitrate dehydrogenase [NADP] cytoplasmic (Homo sapiens, UniProt O75874, R132H): IC50 reported as 32 µM

Record for Cc1cc(=O)c(O)c(C(c2ccc(CCc3ccccc3)cc2)c2oc(C)cc(=O)c2O)o1 under target or system Isocitrate dehydrogenase [NADP] cytoplasmic (Homo sapiens, UniProt O75874, R132H): IC50 reported as > 50 µM
